# run description: Kinetic solubility evaluation
# Assay type: physicochemical
# condition label: simulated gastric fluid, thermodynamic from solid; SGF (pH 1.77), 37° C., 4 hrs; read-out: S (Solubility of freebase)
reported metric: solubility at 4 h (µg/mL)
Dear colleague, please return just the value in µg/mL, with no unit written.

"COc1cc(C(F)(F)CCC(=O)N2CC3CCC(C2)N3c2ccc(C#N)cn2)ccn1" has a reported solubility at 4 h of 150

###

# system name: human M3 receptor (Homo sapiens, UniProt P20309)
# Sequence (P20309 whole entry): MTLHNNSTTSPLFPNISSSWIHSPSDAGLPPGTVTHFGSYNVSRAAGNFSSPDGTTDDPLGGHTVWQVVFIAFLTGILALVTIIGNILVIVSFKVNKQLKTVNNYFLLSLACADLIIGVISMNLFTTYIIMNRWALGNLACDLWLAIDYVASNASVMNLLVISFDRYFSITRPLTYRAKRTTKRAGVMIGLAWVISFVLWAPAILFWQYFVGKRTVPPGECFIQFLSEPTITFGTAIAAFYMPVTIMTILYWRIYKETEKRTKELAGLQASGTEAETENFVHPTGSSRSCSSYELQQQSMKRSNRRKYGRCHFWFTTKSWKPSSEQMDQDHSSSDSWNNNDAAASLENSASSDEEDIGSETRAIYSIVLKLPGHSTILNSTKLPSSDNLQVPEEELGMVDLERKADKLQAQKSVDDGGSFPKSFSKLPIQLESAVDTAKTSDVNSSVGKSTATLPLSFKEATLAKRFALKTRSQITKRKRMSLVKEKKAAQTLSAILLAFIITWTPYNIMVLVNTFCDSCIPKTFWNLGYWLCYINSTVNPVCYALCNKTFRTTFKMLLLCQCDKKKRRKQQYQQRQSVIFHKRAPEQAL
# run description: In vitro functional assay of muscarinic acetylcholine receptor activity (aequorin calcium flux, reversal of acetylcholine EC50 response)
# Protocol: Primary compound plates were prepared in 100% DMSO in opaque 96-well plates (VWR) and serially diluted in half log increments. Secondary compound plates were prepared at 3× concentration in assay buffer. […] The compound and cells were incubated at room temperature for 30 min in the dark. Acetylcholine at the EC50 concentration was added and calcium flux measured using a FlexStation 3 (Molecular Devices). […]
reported metric: IC50

For reference, reported IC50 for "COc1cc(C(F)(F)CCC(=O)N2CC3CCC(C2)N3c2ccc(C#N)cn2)ccn1" stands at 100 to 1000 nM
